# EXPERIMENT: The drug is tested on Eggerthella lenta strain: ATCC25559 for biotransformation. The drug concentrations were measured before and after a 12-h incubation by liquid-chromatography-coupled mass spectrometry (LC–MS)
# EXPERIMENTAL SETUP: 2 µM
PROPERTY MEASURED: Bacterial Biotransformation

Below, each entry is followed by its recorded Bacterial Biotransformation result.
1) C[C@]12CCC(=O)C=C1[C@@H]1C[C@@H]1[C@H]1[C@@H]3[C@@H]4C[C@@H]4[C@@]4(CCC(=O)O4)[C@@]3(C)CC[C@@H]12    Compound NOT metabolized
2) Cc1ccc(/C(=C\CN2CCCC2)c2ccccn2)cc1    Compound NOT metabolized
3) CC(=O)OCC(=O)[C@@]12N=C(C)O[C@@H]1C[C@H]1[C@@H]3CCC4=CC(=O)C=C[C@]4(C)[C@H]3[C@@H](O)C[C@@]12C    Compound metabolized
4) CN1CCN(C2=Nc3ccccc3Oc3ccc(Cl)cc32)CC1.O=C(O)CCC(=O)O [LOXAPINE SUCCINATE]    Compound NOT metabolized
5) Cc1ccc(NC(=O)c2ccc(CN3CCN(C)CC3)cc2)cc1Nc1nccc(-c2cccnc2)n1    Compound NOT metabolized

Exercise: Could you tell me which Bacterial Biotransformation is on file for Nc1ccc(/N=N/c2ccccc2)c(N)n1 ?
Key: Compound metabolized

Exercise: Could you tell me which Bacterial Biotransformation is on file for CC[C@H](C)C(=O)O[C@H]1CCC=C2C=C[C@H](C)[C@H](CC[C@@H]3C[C@@H](O)CC(=O)O3)[C@H]21 ?
Key: Compound metabolized

---

# EXPERIMENT: The drug is tested on Eubacterium rectale strain: ATCC33656 for biotransformation. The drug concentrations were measured before and after a 12-h incubation by liquid-chromatography-coupled mass spectrometry (LC–MS)
# EXPERIMENTAL SETUP: agathobacter rectalis, 2 µM
PROPERTY MEASURED: Bacterial Biotransformation

1. CCc1nn(CCCN2CCN(c3cccc(Cl)c3)CC2)c(=O)n1CCOc1ccccc1    Compound NOT metabolized
2. CC[C@@H](CO)NC(=O)[C@@H]1C=C2c3cccc4c3c(cn4C)C[C@H]2N(C)C1.O=C(O)/C=C\C(=O)O [METHYSERGIDE MALEATE]    Compound metabolized
3. CC(=O)OCC(=O)[C@@]12N=C(C)O[C@@H]1C[C@H]1[C@@H]3CCC4=CC(=O)C=C[C@]4(C)[C@H]3[C@@H](O)C[C@@]12C    Compound metabolized
4. CCOc1ccc(NC(C)=O)cc1    Compound NOT metabolized

---

# EXPERIMENT: The drug is tested on Bacteroides ovatus strain: ATCC8483 for biotransformation. The drug concentrations were measured before and after a 12-h incubation by liquid-chromatography-coupled mass spectrometry (LC–MS)
# EXPERIMENTAL SETUP: 2 µM
PROPERTY MEASURED: Bacterial Biotransformation

1) Nc1nc(N)nc(-c2cc(Cl)ccc2Cl)n1.O=C(O)/C=C\C(=O)O [IRSOGLADINE MALEATE]    Compound NOT metabolized
2) CC(CN1c2ccccc2Sc2ccccc21)N(C)C (stereo not given)    Compound NOT metabolized
3) CN[C@H]1CC[C@@H](c2ccc(Cl)c(Cl)c2)c2ccccc21    Compound NOT metabolized
4) COc1cc2nc(N3CCN(C(=O)c4ccco4)CC3)nc(N)c2cc1OC    Compound NOT metabolized
5) CC(C)NCC(O)c1ccc(NS(C)(=O)=O)cc1 (stereo not given)    Compound metabolized
6) N[C@@H](Cc1ccc(N(CCCl)CCCl)cc1)C(=O)O    Compound metabolized
7) O=C1CN2Cc3c(ccc(Cl)c3Cl)N=C2N1 [ANAGRELIDE]    Compound NOT metabolized
8) CN1CCN(CC/C=C2/c3ccccc3Sc3ccc(S(=O)(=O)N(C)C)cc32)CC1    Compound NOT metabolized

Exercise: Could you tell me which Bacterial Biotransformation is on file for CCN(CC)CCNC(C(=O)OCCC(C)C)c1ccccc1.Cl.Cl (stereo not given) ?
Key: Compound NOT metabolized

Exercise: Could you tell me which Bacterial Biotransformation is on file for CCN1CCCC1CNC(=O)c1cc(S(N)(=O)=O)ccc1OC (stereo not given) [SULPIRIDE] ?
Key: Compound NOT metabolized

---

# EXPERIMENTAL SETUP: akkermansia muciniphila, 12 h, 2 µM
# Description: The drug is tested on Akkermansia muciniphila strain: ATCC BAA-835 for biotransformation. The drug concentrations were measured before and after a 12-h incubation by liquid-chromatography-coupled mass spectrometry (LC–MS)
PROPERTY MEASURED: Bacterial Biotransformation

1. CN(C)CCc1c[nH]c2ccc(Cn3cncn3)cc12.O=C(O)c1ccccc1 [RIZATRIPTAN BENZOATE]    Compound NOT metabolized
2. CC#C[C@]1(O)CC[C@H]2[C@@H]3CCC4=CC(=O)CCC4=C3[C@@H](c3ccc(N(C)C)cc3)C[C@@]21C [MIFEPRISTONE]    Compound NOT metabolized
3. CN1C(=O)CCS(=O)(=O)C1c1ccc(Cl)cc1 (centres undefined) [CHLORMEZANONE]    Compound NOT metabolized
4. CCCCC1=NC2(CCCC2)C(=O)N1Cc1ccc(-c2ccccc2-c2nnn[nH]2)cc1 [IRBESARTAN]    Compound NOT metabolized

---

# EXPERIMENT: The drug is tested on Subdoligranulum variabile strain: DSM15176 for biotransformation. The drug concentrations were measured before and after a 12-h incubation by liquid-chromatography-coupled mass spectrometry (LC–MS)
# EXPERIMENTAL SETUP: 2 µM
PROPERTY MEASURED: Bacterial Biotransformation

Below, each entry is followed by its recorded Bacterial Biotransformation result.
1) C[C@H]1O[C@@H](O[C@H]2[C@@H](O)C[C@H](O[C@H]3[C@@H](O)C[C@H](O[C@H]4CC[C@@]5(C)[C@H](CC[C@@H]6[C@@H]5C[C@@H](O)[C@]5(C)[C@@H](C7=CC(=O)OC7)CC[C@]65O)C4)O[C@@H]3C)O[C@@H]2C)C[C@H](O)[C@@H]1O    Compound NOT metabolized
2) CCOc1ccc2nc(S(N)(=O)=O)sc2c1 [ETHOXZOLAMIDE]    Compound metabolized
3) OC(CCN1CCCCC1)(c1ccccc1)C1CC2C=CC1C2 (stereo not given)    Compound NOT metabolized
4) CC(=O)OCC(=O)NCCCOc1cccc(CN2CCCCC2)c1 [ROXATIDINE ACETATE]    Compound metabolized
5) CN(C)CC(c1ccc(O)cc1)C1(O)CCCCC1.O=C(O)CCC(=O)O (stereo not given) [DESVENLAFAXINE SUCCINATE]    Compound NOT metabolized
6) C=CCc1ccccc1OCC(O)CNC(C)C (stereo not given)    Compound NOT metabolized
7) CCCCCCOC(=O)/N=C(/N)c1ccc(NCc2nc3cc(C(=O)N(CCC(=O)OCC)c4ccccn4)ccc3n2C)cc1.CS(=O)(=O)O [DABIGATRAN ETEXILATE MESYLATE]    Compound NOT metabolized
8) CCc1nn(CCCN2CCN(c3cccc(Cl)c3)CC2)c(=O)n1CCOc1ccccc1    Compound NOT metabolized

Exercise: Could you tell me which Bacterial Biotransformation is on file for Cc1ccccc1C(OCCN(C)C)c1ccccc1.O=C(O)CC(O)(CC(=O)O)C(=O)O (stereo not given) [ORPHENADRINE CITRATE] ?
Key: Compound NOT metabolized

Exercise: Could you tell me which Bacterial Biotransformation is on file for CC(C)C[C@H]1C(=O)N2CCC[C@H]2[C@]2(O)O[C@](NC(=O)[C@@H]3C=C4c5cccc6[nH]c(Br)c(c56)C[C@H]4N(C)C3)(C(C)C)C(=O)N12.CS(=O)(=O)O [BROMOCRIPTINE MESYLATE] ?
Key: Compound metabolized

Exercise: Could you tell me which Bacterial Biotransformation is on file for COC(=O)Nc1nc2ccc(C(=O)c3ccccc3)cc2[nH]1 ?
Key: Compound NOT metabolized

Exercise: Could you tell me which Bacterial Biotransformation is on file for CC[C@@]1(O)C(=O)OCc2c1cc1n(c2=O)Cc2cc3c(CN(C)C)c(O)ccc3nc2-1 ?
Key: Compound NOT metabolized

Exercise: Could you tell me which Bacterial Biotransformation is on file for CCCc1nc(C(C)(C)O)c(C(=O)OCc2oc(=O)oc2C)n1Cc1ccc(-c2ccccc2-c2nnn[nH]2)cc1 ?
Key: Compound metabolized

Exercise: Could you tell me which Bacterial Biotransformation is on file for O=C1CC2(CCCC2)CC(=O)N1CCCCN1CCN(c2ncccn2)CC1 ?
Key: Compound NOT metabolized

Exercise: Could you tell me which Bacterial Biotransformation is on file for COc1ccc(/C=C/C(=O)Nc2ccccc2C(=O)O)cc1OC ?
Key: Compound NOT metabolized

---

# EXPERIMENT: The drug is tested on Clostridium asparagiforme strain: DSM15981 for biotransformation. The drug concentrations were measured before and after a 12-h incubation by liquid-chromatography-coupled mass spectrometry (LC–MS)
# Assay type: ADME
# Design: dose 2 uM, timepoint 0 vs 12 hours
# EXPERIMENTAL SETUP: enterocloster asparagiformis, 2 µM
PROPERTY MEASURED: Bacterial Biotransformation

Below, each entry is followed by its recorded Bacterial Biotransformation result.
1) CCCC(=O)Nc1ccc(OCC(O)CNC(C)C)c(C(C)=O)c1 (stereo unspecified)    Compound NOT metabolized
2) C#C[C@]1(OC(C)=O)CC[C@H]2[C@@H]3CCC4=CC(=O)CC[C@@H]4[C@H]3CC[C@@]21C [NORETHINDRONE ACETATE]    Compound metabolized
3) CCN1CCCC1CNC(=O)c1cc(S(=O)(=O)CC)c(N)cc1OC (stereo unspecified) [AMISULPRIDE]    Compound NOT metabolized
4) COc1cc(C(=O)NCc2ccc(OCCN(C)C)cc2)cc(OC)c1OC [TRIMETHOBENZAMIDE]    Compound NOT metabolized
5) N[C@@H](Cc1ccc(N(CCCl)CCCl)cc1)C(=O)O    Compound metabolized

Exercise: Could you tell me which Bacterial Biotransformation is on file for Fc1ccc([C@@H]2CCNC[C@H]2COc2ccc3c(c2)OCO3)cc1 ?
Key: Compound NOT metabolized

Exercise: Could you tell me which Bacterial Biotransformation is on file for COCCCC/C(=N\OCCN)c1ccc(C(F)(F)F)cc1.O=C(O)/C=C\C(=O)O [FLUVOXAMINE MALEATE] ?
Key: Compound NOT metabolized

Exercise: Could you tell me which Bacterial Biotransformation is on file for NC12CC3CC(CC(C3)C1)C2 ?
Key: Compound NOT metabolized

Exercise: Could you tell me which Bacterial Biotransformation is on file for CN(C)C(=O)Oc1cc(OC(=O)N(C)C)cc(C(O)CNC(C)(C)C)c1 (stereo unspecified) ?
Key: Compound NOT metabolized

Exercise: Could you tell me which Bacterial Biotransformation is on file for CS(=O)(=O)O.O.O.O.O=C1Cc2cc(CCN3CCN(c4nsc5ccccc45)CC3)c(Cl)cc2N1 [ZIPRASIDONE MESYLATE] ?
Key: Compound NOT metabolized

Exercise: Could you tell me which Bacterial Biotransformation is on file for CN1C(C(=O)Nc2ccccn2)=C(O)c2sccc2S1(=O)=O ?
Key: Compound NOT metabolized

FYI, the data here is from ChEMBL document CHEMBL5303573.
